Where do the numbers come from? From PubChem BioAssay.

Experiment: promoters of myeloid differentiation in arrested cells, primary screen, cell-based, GFP/MAC1 double positive, flow cytometry, validation set (AID 588685);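 note: compound exposure lasts four days before antibody staining and flow analysis; 0% = DMSO wells and 100% = 5 µM fulvestrant positive control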
Details: ER-HoxA9 marrow cells, stronger effect = higher value, normalized: vehicle 0, fulvestrant 100
The source made the active and inactive calls.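 Rule for the calls: active = differentiation response of at least 50%, scaled between solvent and reference control, from cells with both markers; inactive = the rest.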
Quantity Measured: differentiation response

COc1ccc(-c2noc(CCc3ccccc3)n2)cc1 ... -0.2% (inactive)
CN(C)CCOc1ccccc1Cc1ccccc1 ... -1.05% (inactive)
OCC1(CCOc2ccccc2)CCN(CCCn2cccn2)CC1 ... 7.2% (inactive)
CCCC(=O)Nc1ccc(OCC(O)CNC(C)C)c(C(C)=O)c1 (stereo not given) ... 11.1% (inactive)
Cc1cc(-c2ccccc2)nnc1NCCN1CCOCC1 ... 4.09% (inactive)
O=C(Nc1ccccc1)c1ccccc1CCc1ccccc1 ... -0.18% (inactive)
Nc1cccc2c1nnn2C1OC(CO)C(O)C(O)C1O (stereo not given) ... -18% (inactive)
O=C1N[C@@H](Cc2cnc[nH]2)C(=O)N2CCC[C@@H]12 ... -7.5% (inactive)
NCCCC(=O)O ... -13.1% (inactive)
O=C(O)c1cc(-c2ccccc2)nc2ccccc12 ... 6.26% (inactive)

differentiation response in this record for `Nc1nnc(-c2cccc(Cl)c2Cl)c(N)n1` : -8.96% (inactive)

Kindly note the recorded differentiation response for `COC(=O)c1ccc(=O)n(Cc2ccco2)c1` , which is -8.27% (inactive)

Notebook: `CCN(CC)Cc1c[nH]c2c(C(=O)OC)cccc12` , differentiation response read as -24.4% (inactive)

molecule CC1/C(=C\c2ccc(Cl)cc2)C(=O)C2CC1C2(C)C (stereo not given) , differentiation response observed: -5.6% (inactive)

Entry `C/C=C/Cn1c(SC)nc2c1c(=O)[nH]c(=O)n2C` — recorded differentiation response = -14.7% (inactive)

----------
Test: LAP4-GFP expression modulators in yeast, confirmation, cell-based, cherry picks, flow cytometry, mother/daughter gates (AID 2271);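 note: ratio of sample to DMSO plate mean so 100% equals DMSO level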
Details: S. cerevisiae LAP4-GFP strain, 3 h, measured here: mother cell gate response, at 10 µM, stronger effect = higher value, 100 means same as DMSO control
Quantity Measured: GFP response relative to DMSO (%)
# number only, unit % dropped from output

Sample records with GFP response relative to DMSO:
O=C(c1cccc(COc2ccc(Cl)cc2Cl)c1)N1CCN(c2ccccn2)CC1 ... 117
O=C(/C=C/c1ccnc2ccccc12)c1cccs1 ... 171
COC(=O)COc1ccc(S(=O)(=O)N2CCc3ccccc3C2)cc1 ... 101
O=C(NCc1ccccc1)c1nc(S(=O)(=O)Cc2ccccc2)ncc1Cl ... 108
C=CCOc1ccccc1C(=O)/C=C1/C(=O)Nc2ccccc21 ... 148

GFP response relative to DMSO in this record for CC1(C)CC(=O)C(C(C2=C(O)CC(C)(C)CC2=O)c2cccs2)C(=O)C1 (configuration not stated) : 100

Form: compound = COCCCN1C(=O)C2C(C(=O)Nc3cc(C)cc(C)c3)C3C=CC2(O3)C1C(=O)NC1CCCCC1 (configuration not stated) ; GFP response relative to DMSO = 98.3

Field GFP response relative to DMSO (entry `O=[N+]([O-])c1ccc(N2CCN(CCO)CC2)cc1Sc1ccccn1` ) reads 95.4

The value of GFP response relative to DMSO measured for the compound `Cn1cnc([N+](=O)[O-])c1S(=O)(=O)c1cccc(Cl)c1` turned out to be 108

Noted for `[O-][n+]1cccc2c(Br)cc(Br)c(O)c21` : its GFP response relative to DMSO reads 251

Value of measured GFP response relative to DMSO for the entry CC1CN(c2nnnn2-c2ccccc2)CC(C)O1 (configuration not stated) : 100

GFP response relative to DMSO for `COc1ccc(CC2=C(O)c3ccccc3C(=O)C2=O)cc1` is 135

GFP response relative to DMSO for CC(Oc1ccc(Br)cc1)C(=O)Nc1nc(-c2ccccn2)cs1 (configuration not stated) is 258

Given item `CCC(=O)Nc1ccc(NC(=O)c2cc3ccccc3o2)cc1` , the value recorded as its GFP response relative to DMSO is 98.4

response.value for `CCOC(=O)/C(=N\NC(=O)c1ccccc1)c1ccccc1` (field: GFP response relative to DMSO) = 106

Reported GFP response relative to DMSO of `Cc1ccccc1N1C(=O)c2sc3nc4c(c(=O)n3c2C1=O)CCC4` : 110

What the record says about `Cc1ccc2c(c1)c(/C=C/c1cc[n+](C)cc1)c(C)n2C` : GFP response relative to DMSO is 173

For this compound ( `COC(=O)c1sc(-c2ccc(C(C)(C)C)cc2)cc1NC(=O)CCC(=O)O` ), measured GFP response relative to DMSO is 100

The compound identified as `COc1cc(NC(C)=O)ccc1NC(=O)c1cc2ccccc2o1` registered its GFP response relative to DMSO at 96.2

----------
Assay: modulators of CIT2-GFP expression in yeast, confirmation, S. cerevisiae, GFP fusion, cherry picks, mother/daughter gates (AID 2274)
Conditions: S. cerevisiae CIT2-GFP strain, flow cytometry, 3 h; at 10 µM; stronger effect = higher value
Quantity Measured: GFP response, % of DMSO (%)
Quick reminder: number only, in %, skip the unit.

COc1cc(NC(=O)c2ccccc2)ccc1NC(=O)c1cc2ccccc2o1 ... 100
O=C1c2cccc3c(N4CCCCC4)ccc(c23)C(=O)N1CCO ... 103
CCOC(=O)C1CCCN(c2c(C(=O)c3ccccc3)cnc3ccccc23)C1 (centres undefined) ... 104

// sample `O=[N+]([O-])c1c(Nc2ccccn2)cc(Cl)c2nonc12` , its GFP response, % of DMSO was 979

Quick note, GFP response, % of DMSO for CC(NC(=O)C1CCC(CNS(=O)(=O)c2ccccc2)CC1)c1ccccc1 (centres undefined) landed at 99.3

Lab note: `O=c1[nH]c(CN2CCCCC2)nc2c1C1(CCCCC1)Cc1ccccc1-2` gave GFP response, % of DMSO of 99.1

Lab book: GFP response, % of DMSO of CCCCc1[nH]nc2c1C1(C(=O)N(CC)c3ccccc31)C(C#N)=C(N)O2 (centres undefined) noted as 102

// GFP response, % of DMSO value for `COc1ccccc1-c1nnc(NC(=O)c2ccc(S(=O)(=O)N(C)Cc3ccccc3)cc2)o1` : 97.8

----------
Assay: yeast V-ATPase proton transport modulators, S. cerevisiae, pHLuorin, HTS validation (AID 504600);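 note: plate controls were DMSO for no effect and reference compound for full effect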
Details: S. cerevisiae pHLuorin cytosolic pH, at 10 µM, stronger effect = higher value
Quantity Measured: response (%)
Answer with a number only, understood to be in %.

Record excerpt, results attached:
C/C(=N\N=C1\NC(=O)C(CC(=O)Nc2ccc(Cl)cc2)S1)c1ccco1 (stereo not given) ... -0.13
CCCC(=O)O[C@]1(C(=O)CO)CC[C@H]2[C@@H]3CCC4=CC(=O)CC[C@]4(C)[C@H]3[C@@H](O)C[C@@]21C ... -3.44
Cc1ccc2c(CN3CCN(Cc4ccc5c(c4)OCO5)CC3)cc(=O)oc2c1C ... -2.29
CCN(CC)CCOC(=O)C1(C2CCCCC2)CCCCC1 ... 1.87

# response (compound: `O=C(Nc1c(C(=O)O)[nH]c2ccccc12)NC1CCCCC1` ) is 5.33

----------
Consider the following molecules and their measured GFP response, % of DMSO readings.
Assay: modulators of CIT2-GFP expression in yeast, confirmation, S. cerevisiae, GFP fusion, cherry picks, mother/daughter gates (AID 2274)
Conditions: S. cerevisiae CIT2-GFP strain, flow cytometry, 3 h; at 10 µM; stronger effect = higher value
All answers are understood in %, so give the number only.

// solved cases for GFP response, % of DMSO follow
Cc1[nH]c2ccccc2c1C(=O)C(C)OC(=O)C1CCC1 (stereo not given) ... 106
O=C(COc1ccccc1)Nc1c2c(nn1-c1ccccc1)CS(=O)C2 (stereo not given) ... 98.6
Cc1nn(C)c(C(=O)Sc2cccc(Cl)c2)c1[N+](=O)[O-] ... 104
Cc1ccc(NCN2C(=O)C3C4C=CC(C4)C3C2=O)cc1 (stereo not given) ... 102
O=C(/C=C/c1ccccn1)c1cc(Br)ccc1O ... 86.1
CC(C)(C)NC(=O)CN(C(=O)CCC(=O)Nc1nccs1)c1ccc(F)cc1 ... 102
Cc1c(O)ccc(C(=O)CN2CCN(c3ccc(F)cc3)CC2)c1O ... 101
Cc1cc(C)nc(/N=C(\N)N2CCCCCC2)n1 ... 101

Record `CCN(c1ccccc1)S(=O)(=O)c1ccc(C(=O)Nc2nnc(COC)o2)cc1` . Reported GFP response, % of DMSO: 96.5

Lab note: `Cc1cc(OCC(=O)Nc2ccc(S(=O)(=O)N3CCN(C)CC3)cc2)ccc1Br` gave GFP response, % of DMSO of 101

Kindly note the recorded GFP response, % of DMSO for `Nc1ccc(S(=O)(=O)c2ccccc2)nc1` , which is 95.2

Consider `N/C(=N\OC(=O)c1ccc(Cl)cc1Cl)c1ccccc1` . Its measured GFP response, % of DMSO is 151

Record `C/C(=N\Nc1ncnc2sc(C)c(C)c12)c1ccccn1` , field GFP response, % of DMSO: 449
